# Test system: ACHN
# Test Method Notes: NCI tumour cell line growth inhibition, 48 h
Active and inactive are the calls of the source. Rule as the data show it: active = GI50 up to about 1.1 µM and inactive = higher.
Quantity Name: GI50

I have this compound here, CC1(C)CC[C@]2(C(=O)O)CC[C@]3(C)C(=CCC4=C5C[C@H](O)[C@H](O)[C@@](C)(CO)[C@@]5(C)CC[C@]43C)[C@@H]2C1 , and I need its recorded GI50.
> 100 µM (inactive)

Lookup COc1c2c(cc3c1OCO3)[C@]13C=C[C@H](OC)C[C@H]1N(C2)CC3O (stereo not given in full)
> 100 µM (inactive)

Lookup C[Si](C)(C)C#CCOC=C1CC1
> 100 µM (inactive)

Lookup Cn1c(=O)c2nc(SCc3ccccn3)[nH]c2n(C)c1=S
> 100 µM (inactive)

Lookup C/C(=N\N=C(N)N)c1sc(-c2nc(C)c(/C(C)=N/N=C(N)N)s2)nc1C
> 100 µM (inactive)

***
I have this compound here, C[C@]12CC[C@@H]3c4cc(Br)c(O)c(Br)c4CC[C@H]3[C@@H]1CC(Br)C2=O (stereo not given in full) , and I need its recorded GI50.
6.37 µM (inactive)

Lookup NC1=NN(c2ccccc2)C(=O)C1C(=O)CCC(=O)Nc1cccc(C(F)(F)F)c1 (stereo not given)
23.1 µM (inactive)

Lookup CC(C)OP(=O)(OC(C)C)C(C(F)(F)F)C(F)(F)F
> 100 µM (inactive)

Lookup Cc1ccc(C2CC(c3ccc([N+](=O)[O-])cc3)=Nc3ccccc3S2)cc1 (stereo not given)
27.6 µM (inactive)

Lookup O=C(O)/C=C/c1ccc(OS(=O)(=O)O)cc1
> 100 µM (inactive)

Lookup COc1cc2c(cc1OC)C13CCN4CC5CCOC6CC(=O)N2C1C6C5CC43 (stereo not given)
> 100 µM (inactive)

Lookup CCCCCCCCCCCC(=O)N(CCCCCCCCC)CC(O)C(O)C(OC1OC(CO)C(O)C(O)C1O)C(O)CO (stereo not given)
17.7 µM (inactive)

Lookup CCCCCCCCCCCCCCCCCC(=O)O[C@H](COC(=O)CCCCCCCCCCC)COC(=O)CCCCCCCCCCCCCCC
> 100 µM (inactive)

Lookup Nc1n[nH]c2nc3ccc(C(F)(F)F)cc3nc12
25.1 µM (inactive)

Lookup COc1cc(CC2c3cc(OC)c(OC)cc3CCN2C)ccc1O (stereo not given)
> 100 µM (inactive)

Lookup O=C(/C=C/c1ccccc1)C[C@@H](O)C[C@@H]1CC=CC(=O)O1
12.7 µM (inactive)

* * *

# Test system: UACC-257
# Test Method Notes: NCI tumour cell line growth inhibition, 48 h
Active and inactive are the calls of the source. Cut-off read from the data, not from the text of the source: active = GI50 up to about 1.1 µM and inactive = higher.
API: response.call in yes (active), no (inactive)

Reference set (3 entries):
Could you check what this test reported for Cc1coc2c1C(=O)C(=O)c1ccccc1-2 ?
yes

Lookup Cc1nnc(N)s/c1=N/O
no

Lookup C/C(=N\N=C(/S)N(C)C)c1cccc[n+]1[O-]
no

***
Could you check what this test reported for C=C(CCC/C(C)=C/C=C/[C@H](C)CCCc1ccoc1)C[C@@H]1OC(=O)[C@H](C)[C@@H]1O ?
no

Lookup N#CC(C#N)=Cn1c(=S)[nH]c2ccccc21
no

Lookup Cc1nc(C)c(N2CCNCC2)c(O)n1
no

Lookup O=c1[nH]ncc2[nH]c3c(c12)CCCc1ccccc1-3
no

Lookup O=C(c1ccc([N+](=O)[O-])cc1[N+](=O)[O-])N(/N=C/C=C/c1ccccc1)c1nnc(-c2ccccc2)c(-c2ccccc2)n1
no

* * *

# System: SW-620
# Test Method Notes: NCI tumour cell line growth inhibition, 48 h
Activity calls are given as the source filed them. Rule as the data show it: active = GI50 up to about 1.1 µM and inactive = higher.
API: response.call in true (1) = active, false (0) = inactive

Could you check what this test reported for CC(=O)OCC1OC(OC2CC3C(C)(C)C(OC(C)=O)CC[C@]3(C)C3CCC45CC4(CCC5[C@@H](C)C[C@H](O)C(O)C(C)(C)O)[C@]23C)C(O)C(O)C1O (stereo partly specified) ?
false (0)

***
Could you check what this test reported for C/C=C(\C)[C@@H](O)C(=O)O[C@@H]1CC(C(C)(C)O)[C@](C)(CCC(=O)OC)[C@H]2[C@H](OC(=O)[C@H](O)[C@H](C)CC)C[C@]3(C)C(=CC[C@H]3[C@H]3CO[C@H](C=C(C)C)C3)[C@]12C (stereo partly specified) ?
false (0)

Lookup O=C1N2CCc3c([nH]c4ccccc34)C23CC2CCCC12S3 (stereo unspecified)
false (0)

Lookup CCOC(=O)C1=C(Nc2ccc(Cl)c(Cl)c2)OC/C1=N\NC(=O)Cc1ccccc1
false (0)

Lookup O=C(c1ccc(Cl)cc1)N(C(=O)N1CCCCC1)c1ccccc1
false (0)

Lookup C[Si](C)(C)C#CCOC=C1CC1
false (0)

Lookup OCC1NCC(O)C(O)C1O (stereo unspecified)
false (0)

Lookup O=C(O)c1c2c(cc3c1CC1(Cc4cc5c(cc4C1=O)CCC5)C3)CCC2 (stereo unspecified)
false (0)

Lookup CC(=O)O[C@@H](C1C[C@@H](C)[C@H]2[C@@](O)(O1)[C@H](O)[C@@]1(C)C3=CC[C@H]4C(C)(C)[C@@H](OC5OCC(O)C(O)C5O)CC[C@@]45C[C@@]35CC[C@]21C)C(C)(C)O (stereo partly specified)
false (0)

Lookup CCOC(=O)c1ccc(NC(=O)O/N=C(/Cl)C(C)C)cc1
false (0)

Lookup CCOC(=O)C(NC(=O)Nc1ccccc1F)(OC)C(F)(F)F (stereo unspecified)
false (0)

Lookup NC(=O)c1c(NC=O)ncn1C1OCC(O)C(O)C1O (stereo unspecified)
false (0)

Lookup COCC(=O)[C@]1(O)Cc2c(O)c3c(c(O)c2[C@@H](OC2CC(N)C(O)C(C)O2)C1)C(=O)c1c(OC)cccc1C3=O (stereo partly specified)
true (1)

Lookup NS(=O)(=O)c1ccc(/N=N/c2c(O)c(C(=O)O)cc3ccccc23)cc1
false (0)

Lookup COc1cc2c(cc1OC)C13CCN4CC5CCOC6CC(=O)N2C1C6C5CC43 (stereo unspecified)
false (0)

Lookup CC(C(=O)OCc1ccccc1)N(Cc1ccccc1)Cc1ccccc1 (stereo unspecified)
false (0)

Lookup CC(=O)[C@]1(O)Cc2c(O)c3c(c(O)c2C(OC2OC(C)C(O)C(O)C2F)C1)C(=O)c1ccccc1C3=O (stereo partly specified)
true (1)

Lookup COc1ccc(C2C(Cl)C(=O)N2NC(=O)Cc2ccccc2)cc1OC (stereo unspecified)
false (0)

Lookup Cc1coc2c1C(=O)C(=O)c1ccccc1-2
false (0)

Lookup CC(C)(C)C(=O)C(C(=O)c1ccccc1)C(=O)C(C)(C)C
false (0)

Lookup COCCN1C(=O)C2c3[nH]c4ccccc4c3C3CCC(C(C)(C)C)CC3C2C1=O (stereo unspecified)
false (0)

Lookup N/C(=N/c1ccc(O)cc1)S(=O)O
false (0)

Lookup CCCCCCCCCCCCCCCCOCC(CN(C)CCN(C)C)OCCCCCCCCCCCCCCCC (stereo unspecified)
false (0)

* * *

# Test system: UACC-62
# Test Method Notes: NCI tumour cell line growth inhibition, 48 h
Calls of active or inactive are those of the source. No stated cut-off is given here; in the data, active = GI50 up to about 1.1 µM and inactive = higher.
GI50 overview

// below: answered compounds
I have this compound here, CCCCON1C[C@H](OC(C)=O)C(OC(C)=O)[C@H](OC(C)=O)C1 (stereo partly specified) , and I need its recorded GI50.
> 100 µM (inactive)

Lookup O=CNc1ncn[nH]1
> 100 µM (inactive)

Lookup CC(C(=O)OCc1ccccc1)N(Cc1ccccc1)Cc1ccccc1 (stereo unspecified)
> 100 µM (inactive)

Lookup COc1cccc(C2SCc3nc4ccccc4n32)c1 (stereo unspecified)
49.9 µM (inactive)

Lookup NC1=NN(c2ccccc2)C(=O)C1C(=O)CCC(=O)Nc1cccc(C(F)(F)F)c1 (stereo unspecified)
53 µM (inactive)

***
I have this compound here, O=C1CSC2(CC(/C=C/c3ccccc3)=NN2c2cccc(S(=O)(=O)O)c2)N1c1nc2ccccc2s1 (stereo unspecified) , and I need its recorded GI50.
18.9 µM (inactive)

Lookup CC(C)(C)/N=C1/CC(C)(C)c2ccccc2/C(=N\c2ccccc2)S1
27 µM (inactive)

Lookup CCOC(C)O[C@H]1C(=O)OCC1(C)C (stereo partly specified)
> 100 µM (inactive)

Lookup CC(C)C(Sc1nc(-c2ccccc2)c(-c2ccccc2)[nH]1)C(=O)N/N=C/c1ccc(Cl)cc1 (stereo unspecified)
22.8 µM (inactive)

Lookup O=C(Nc1cc(Cl)ccc1Cl)c1cc2ccccc2oc1=O
> 100 µM (inactive)

Lookup O=C1Oc2ccccc2N/C1=C/C(=O)c1ccc(Cl)cc1
32.4 µM (inactive)

* * *

# System: M14
# Test Method Notes: NCI tumour cell line growth inhibition, 48 h
Active and inactive are the calls of the source. Cut-off read from the data, not from the text of the source: active = GI50 up to about 1.1 µM and inactive = higher.
Quantity Name: GI50

M14 / GI50 / COc1ccc(NC(=S)NN=C(C)c2cccc(C(C)=NNC(=S)Nc3ccc(OC)cc3)n2)cc1 : value?
11.2 µM (inactive)

Lookup COc1c2c(cc3c1OCO3)[C@]13C=C[C@H](OC)C[C@H]1N(C2)CC3O (some centres not stated)
> 100 µM (inactive)

Lookup OCC1NCC(O)C(O)C1O (configuration not stated)
> 100 µM (inactive)

Lookup C/C(=N\N=C(N)N)c1sc(-c2nc(C)c(/C(C)=N/N=C(N)N)s2)nc1C
> 100 µM (inactive)

***
M14 / GI50 / NC1CC=C(COC(=O)C(O)(c2ccccc2)C2CC2)CC1 (configuration not stated) : value?
> 100 µM (inactive)

Lookup C=C(C)C(=O)OC1CC2(C)OC(=CC2=O)C(C)CC2OC(=O)C(=C)C12 (configuration not stated)
5.48 µM (inactive)

Lookup COc1nc(C#CC(C)(C)C)nc(OC)n1
36.6 µM (inactive)
